Data origin, for the record: patent US10022453B2

- tested on: human kinesin spindle protein KSP/Eg5 (Homo sapiens, UniProt P52732)
- Construct: The motor domain of the human kinesin spindle protein KSP/Eg5
- Sequence (P52732 18-359 limits assumed): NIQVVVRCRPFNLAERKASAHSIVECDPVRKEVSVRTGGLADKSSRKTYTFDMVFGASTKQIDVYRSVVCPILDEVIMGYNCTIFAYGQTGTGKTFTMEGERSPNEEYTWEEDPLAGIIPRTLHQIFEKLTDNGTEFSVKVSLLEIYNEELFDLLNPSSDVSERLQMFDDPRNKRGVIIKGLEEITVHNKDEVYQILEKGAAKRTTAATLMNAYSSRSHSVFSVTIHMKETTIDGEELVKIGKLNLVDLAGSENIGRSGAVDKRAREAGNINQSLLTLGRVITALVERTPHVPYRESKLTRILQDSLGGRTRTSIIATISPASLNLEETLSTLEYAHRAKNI
- protocol summary: Inhibition of the kinesin spindle protein KSP/Eg5 (ATPase, malachite green)
- cond: 10 nM KSP motor domain, 500 μM ATP, 2 h RT
pIC50: −log10 of the molar value.
As shown below, each of these compounds has a reported pIC50 value.

>  <compound>
CC(C)(C)[C@H](c1cc(-c2cc(F)ccc2F)cn1Cc1ccccc1)N(CC[C@H](N)C(=O)NCCNC(=O)CNC(=O)CC1SC[C@@H](C(=O)O)NC1=O)C(=O)CO (stereo partly drawn) [Example 256]

>  <tested on>
human kinesin spindle protein KSP/Eg5 (Homo sapiens, UniProt P52732)

>  <pIC50>
7.79

$$$$
>  <compound>
CC(C)[C@H](N)C(=O)N[C@@H](CCCNC(N)=O)C(=O)NCCCN(C(=O)CO)[C@@H](c1nc(-c2cc(F)ccc2F)cn1Cc1ccccc1)C(C)(C)C [Example 101]

>  <tested on>
human kinesin spindle protein KSP/Eg5 (Homo sapiens, UniProt P52732)

>  <pIC50>
8.37

$$$$
>  <compound>
CC(=O)N(CCCN)[C@@H](c1cc(-c2cc(F)ccc2F)cn1Cc1ccccc1)C(C)(C)C [Example 188]

>  <tested on>
human kinesin spindle protein KSP/Eg5 (Homo sapiens, UniProt P52732)

>  <pIC50>
8.00

$$$$

====

- protocol summary: Cell permeability, flux assay using Caco-2 cells
- cond: human, Caco-2
As shown below, each of these compounds has a reported efflux ratio at 2 h value.
measured attribute: efflux ratio at 2 h

>  <compound>
CC(C)(C)[C@H](c1cc(-c2cc(F)ccc2F)cn1Cc1ccccc1)N(CC[C@H](N)C(=O)N[C@H]1CC[C@@H](C(=O)NCCN2C(=O)CC(SC[C@H](N)C(=O)O)C2=O)C1)C(=O)CO.O=C(O)C(F)(F)F (stereo partly shown) [Example 157]

>  <measured value>
7.2

$$$$
>  <compound>
CC(C)(C)[C@H](c1nc(-c2cc(F)ccc2F)cn1Cc1ccccc1)N(CC[C@H](N)C(=O)NCCC(=O)N[C@@H](Cc1ccc(N)cc1)C(=O)O)C(=O)CO.O=C(O)C(F)(F)F.O=C(O)C(F)(F)F [Example 74]

>  <measured value>
15

$$$$
>  <compound>
CC(C)(C)[C@H](c1nc(-c2cc(F)ccc2F)cn1Cc1ccccc1)N(CC[C@H](N)C(=O)NCCN1C(=O)CC(SC[C@H](N)C(=O)O)C1=O)C(=O)CO (stereo partly shown) [Example 61]

>  <measured value>
7.4

$$$$
>  <compound>
CC(C)(C)[C@H](c1nc(-c2cc(F)ccc2F)cn1Cc1ccccc1)N(CC[C@H](N)C(=O)NCCC(=O)Nc1ccc(N2C(=O)CC(SC[C@H](N)C(=O)O)C2=O)cc1)C(=O)CO (stereo partly shown) [Example 66]

>  <measured value>
12

$$$$
>  <compound>
CC(C)(C)[C@H](c1nc(-c2cc(F)ccc2F)cn1Cc1ccccc1)N(CC[C@H](N)C(=O)NN)C(=O)CO.O=C(O)C(F)(F)F [Example 77]

>  <measured value>
47

$$$$
>  <compound>
CC(C)(C)[C@H](c1nc(-c2cc(F)ccc2F)cn1Cc1ccccc1)N(CC[C@H](N)C(=O)NCCN)C(=O)CO.O=C(O)C(F)(F)F.O=C(O)C(F)(F)F [Example 80]

>  <measured value>
22

$$$$
>  <compound>
CC(C)(C)[C@H](c1nc(-c2cc(F)ccc2F)cn1Cc1ccccc1)N(CC[C@H](N)C(=O)NCCOCCOCCOCCC(=O)O)C(=O)CO.O=C(O)C(F)(F)F [Example 71]

>  <measured value>
280

$$$$
>  <compound>
CC(C)[C@H](NC(=O)CCCCCN1C(=O)CC(SC[C@H](N)C(=O)O)C1=O)C(=O)N[C@@H](C)C(=O)N[C@@H](CCCCNC(=O)[C@@H](N)CCN(C(=O)CO)[C@@H](c1nc(-c2cc(F)ccc2F)cn1Cc1ccccc1)C(C)(C)C)C(=O)O.O=C(O)C(F)(F)F (stereo partly shown) [Example 63]

>  <measured value>
1.1

$$$$
>  <compound>
CC(C)(C)[C@H](c1cc(-c2cc(F)ccc2F)cn1Cc1ccccc1)N(CCCN)C(=O)CSC[C@H](NC(=O)CCOCCOCCOCCOCCNC(=O)CCN1C(=O)CC(SC[C@H](N)C(=O)O)C1=O)C(=O)O.O=C(O)C(F)(F)F.O=C(O)C(F)(F)F (stereo partly shown) [Example 226]

>  <measured value>
0.2

$$$$
>  <compound>
C[C@H](NC(=O)CCNC(=O)[C@@H](N)CCN(C(=O)CO)[C@@H](c1nc(-c2cc(F)ccc2F)cn1Cc1ccccc1)C(C)(C)C)C(=O)N[C@@H](CCCNC(N)=O)C(=O)Nc1ccc(N2C(=O)CC(SC[C@H](N)C(=O)O)C2=O)cc1 (stereo partly shown) [Example 68]

>  <measured value>
1.9

$$$$
